B1: NLV2 TCR alpha chain (CDR3α only) (parent)
chain: AGPMKTSYDKVI

variants of: B1; test: T-Switch: Jurkat TCRβ−/− cells expressing a CDR3 saturation-mutagenesis library, stained with two peptide-HLA-A*02:01 tetramers (original and novel peptide) plus anti-CD3, FACS-sorted into four gates, gDNA sequenced; conditions: with both tetramers (double-negative gate, binds neither): HLA-A*02:01 with … and with …, tetramers 1 µg/mL, 30 min on ice, SP, DP and SW gates expanded about 10 days between rounds ('two to three rounds of selection' in the Methods), gate DN: OPPOSITE: higher = more of the variant in the gate that binds neither peptide = LESS binding (or no expression; inferred). Fold enrichment of the CDR3 variant in one FACS gate of a two-tetram, unresolved parent, parent is a CDR3 fragment, scale: fold enrichment, numbering: sequential-on-construct, sequence starts at 1
Binary call on enrichment: y from 1 upward, n beneath that.

See these solved cases before continuing.
| variant_code | category_label |
| --- | --- |
| […] (CDR3 as printed); D9G derived by comparing it with the table's wild-type CDR3 AGPMKTSYDKVI | y |
| […] (CDR3 as printed); K10A derived by comparing it with the table's wild-type CDR3 AGPMKTSYDKVI | n |
| […] (CDR3 as printed); V11H derived by comparing it with the table's wild-type CDR3 AGPMKTSYDKVI | n |
| […] (CDR3 as printed); Y8N derived by comparing it with the table's wild-type CDR3 AGPMKTSYDKVI | n |
| […] (CDR3 as printed); M4V derived by comparing it with the table's wild-type CDR3 AGPMKTSYDKVI | n |
| […] (CDR3 as printed); T6S derived by comparing it with the table's wild-type CDR3 AGPMKTSYDKVI | y |
| […] (CDR3 as printed); M4A derived by comparing it with the table's wild-type CDR3 AGPMKTSYDKVI | n |
| […] (CDR3 as printed); K5S derived by comparing it with the table's wild-type CDR3 AGPMKTSYDKVI | n |

Is enrichment for […] (CDR3 as printed); T6D derived by comparing it with the table's wild-type CDR3 AGPMKTSYDKVI at or above 1?
y

Is enrichment for […] (CDR3 as printed); I12D derived by comparing it with the table's wild-type CDR3 AGPMKTSYDKVI at or above 1?
n

Is enrichment for […] (CDR3 as printed); Y8M derived by comparing it with the table's wild-type CDR3 AGPMKTSYDKVI at or above 1?
y

Is enrichment for […] (CDR3 as printed); I12A derived by comparing it with the table's wild-type CDR3 AGPMKTSYDKVI at or above 1?
n

Is enrichment for […] (CDR3 as printed); V11L derived by comparing it with the table's wild-type CDR3 AGPMKTSYDKVI at or above 1?
n

Is enrichment for […] (CDR3 as printed); I12S derived by comparing it with the table's wild-type CDR3 AGPMKTSYDKVI at or above 1?
n

Is enrichment for […] (CDR3 as printed); T6K derived by comparing it with the table's wild-type CDR3 AGPMKTSYDKVI at or above 1?
y

Is enrichment for […] (CDR3 as printed); K5M derived by comparing it with the table's wild-type CDR3 AGPMKTSYDKVI at or above 1?
n

Is enrichment for […] (CDR3 as printed); Y8Q derived by comparing it with the table's wild-type CDR3 AGPMKTSYDKVI at or above 1?
n

Is enrichment for […] (CDR3 as printed); D9Y derived by comparing it with the table's wild-type CDR3 AGPMKTSYDKVI at or above 1?
y

Is enrichment for […] (CDR3 as printed); K10Y derived by comparing it with the table's wild-type CDR3 AGPMKTSYDKVI at or above 1?
n

Is enrichment for […] (CDR3 as printed); K5R derived by comparing it with the table's wild-type CDR3 AGPMKTSYDKVI at or above 1?
y

Is enrichment for […] (CDR3 as printed); T6V derived by comparing it with the table's wild-type CDR3 AGPMKTSYDKVI at or above 1?
n

Is enrichment for […] (CDR3 as printed); Y8R derived by comparing it with the table's wild-type CDR3 AGPMKTSYDKVI at or above 1?
y

Is enrichment for […] (CDR3 as printed); G2T derived by comparing it with the table's wild-type CDR3 AGPMKTSYDKVI at or above 1?
n

Is enrichment for […] (CDR3 as printed); P3D derived by comparing it with the table's wild-type CDR3 AGPMKTSYDKVI at or above 1?
y
